Assay: Stability of cannabinoid entourage and Vitamin E components of the powder concentrate by LCMSMS
Format: physicochemical
Conditions: powder stored at 21-25° C.; 8 days
// reported Stability of Plant-Derived Cannabinoid Compounds in Powder Concentrate for each item listed
Answer in mg/g powder, number only, no unit symbol.

Query :: Requested read-out: Stability of Plant-Derived Cannabinoid Compounds in Powder Concentrate. Entry: C=C(C)[C@@H]1CCC(C)=C[C@H]1c1c(O)cc(CCC)cc1O
Result :: 0.051

----------
Assay: Stability of cannabinoid compounds and Vitamin E components in Beverage 1 (AB White) by LCMSMS
Type: physicochemical
Details: AB White stored at 21-25° C.; 450 days
List of Stability of Plant-Derived Cannabinoid Compounds in AB White, 21-25° C. values.
Report as a plain number; the unit µg/mL is understood.

>>> measuredvalue("C=C(C)[C@@H]1CCC(C)=C[C@H]1c1c(O)cc(CCCCC)c(C(=O)O)c1O [CBDA, cannabidiolic acid]")
1.70
>>> measuredvalue("CCCCCc1cc(O)c2c(c1)OC(C)(CCC=C(C)C)C=C2 (centres unmarked) [CBC, cannabichromene]")
0.310
>>> measuredvalue("C=C(C)[C@@H]1CCC(C)=C[C@H]1c1c(O)cc(CCC)cc1O [CBDV, cannabidivarin]")
0.144
>>> measuredvalue("CCCCCc1cc2c(c(O)c1C(=O)O)[C@@H]1C=C(C)CC[C@H]1C(C)(C)O2 [D9 THCA, delta-9-tetrahydrocannabinolic acid]")
0.921

Query :: Any idea what Stability of Plant-Derived Cannabinoid Compounds in AB White, 21-25° C. was measured for CCCCCc1cc(O)c2c(c1)OC(C)(C)[C@@H]1CCC(C)=C[C@@H]21 [D9 THC, delta-9-tetrahydrocannabinol, reference compound] ?
Result :: 11.7

----------
Experiment: Stability of cannabinoid compounds and Vitamin E components in Beverage 2 (AB Red) by LCMSMS
Format: physicochemical
Conditions: stored at 21-25° C., 420 days
Stability of Plant-Derived Cannabinoid Compounds in AB Red below 3 µg/mL gives FALSE; Stability of Plant-Derived Cannabinoid Compounds in AB Red at or above it gives TRUE.

Reference set, count: 5
>>> label("C=C(C)[C@@H]1CCC(C)=C[C@H]1c1c(O)cc(CCC)cc1O")
"FALSE"
>>> label("CCCCCc1cc(O)c2c(c1)OC(C)(C)[C@@H]1CCC(C)=C[C@@H]21 [D9 THC, delta-9-tetrahydrocannabinol, reference compound]")
"TRUE"
>>> label("CCCCCc1cc(O)c2c(c1)OC(C)(CCC=C(C)C)C=C2 (stereo not drawn)")
"FALSE"
>>> label("CCCCCc1cc(O)c2c(c1)OC(C)(C)c1ccc(C)cc1-2")
"FALSE"
>>> label("C=C(C)[C@@H]1CCC(C)=C[C@H]1c1c(O)cc(CCCCC)c(C(=O)O)c1O")
"FALSE"

Next:
Query :: Hi, just wondering whether CCCCCc1cc(O)c2c(c1)OC1(C)CCC3C1C2C3(C)C (stereo not drawn) shows Stability of Plant-Derived Cannabinoid Compounds in AB Red of 3 µg/mL or higher.
Result :: FALSE

----------
Recorded measurements of Stability of Plant-Derived Cannabinoid Compounds in AB White, 8° C., one per entry
Assay: Stability of cannabinoid compounds and Vitamin E components in Beverage 1 (AB White) by LCMSMS
Format: physicochemical
Conditions: AB White stored at 8° C.; 8 days
State the answer as a number, implicitly in µg/mL.

>>> measuredvalue("CCCCCc1cc(O)c2c(c1)OC(C)(CCC=C(C)C)C=C2 (centres unmarked) [CBC, cannabichromene]")
0.318
>>> measuredvalue("CCCCCc1cc2c(c(O)c1C(=O)O)[C@@H]1C=C(C)CC[C@H]1C(C)(C)O2 [D9 THCA, delta-9-tetrahydrocannabinolic acid]")
0.949
>>> measuredvalue("C=C(C)[C@@H]1CCC(C)=C[C@H]1c1c(O)cc(CCC)cc1O [CBDV, cannabidivarin]")
0.148
>>> measuredvalue("CCCc1cc(O)c2c(c1)OC(C)(C)[C@@H]1CCC(C)=C[C@@H]21 [THCV, delta-9-tetrahydrocannabivarin]")
3.60
>>> measuredvalue("C=C(C)[C@@H]1CCC(C)=C[C@H]1c1c(O)cc(CCCCC)c(C(=O)O)c1O [CBDA, cannabidiolic acid]")
1.75
>>> measuredvalue("CCCCCc1cc(O)c(C/C=C(\\C)CCC=C(C)C)c(O)c1 [CBG, cannabigerol]")
4.86
>>> measuredvalue("C=C(C)[C@@H]1CCC(C)=C[C@H]1c1c(O)cc(CCCCC)cc1O [CBD, cannabidiol, reference compound]")
28.47

Turning now to a further compound:
Query :: Quick one: Stability of Plant-Derived Cannabinoid Compounds in AB White, 8° C. for CCCCCc1cc(O)c2c(c1)OC(C)(C)[C@@H]1CCC(C)=C[C@@H]21 [D9 THC, delta-9-tetrahydrocannabinol, reference compound] ?
Result :: 11.83
